Data origin: PubChem BioAssay (Tox21)

- TEST PROTOCOL: qHTS assay to identify small molecule agonists of the peroxisome proliferator-activated receptor delta (PPARd) signaling pathway - cell viability counter screen (AID 743211); also: nearly all actives have a fitted effect of over 55% in size
- ASSAY CONDITIONS: PPARd-bla HEK293H viability, CellTiter-Glo luminescence, 17 h; series mostly up to 62.6 µM
- From the text: U.S. Tox21 Program National Center for Advancing Translational Sciences [NCATS] NIH Chemical Genomics Center [NCGC] U.S. Environmental Protection Agency [EPA] National Institutes of Environmental Health Sciences [NIEHS] National Toxicology Program [NTP] U.S. Food and Drug Administration [FDA] […]
Records with an inconclusive call do not appear. Activity calls are given as the source filed them. Calls follow the shape of the dose curve; as a rule, active = well fitted cell-killing curve with a large enough effect in the repeat runs; inconclusive = weak or mixed curves; inactive = no such curve, though single readings can be large or run the other way.
Answer with one of the outcomes active, inactive

Q: Recorded call for CCOC(=O)c1nc(C(Cl)(Cl)Cl)n(-c2ccc(Cl)cc2Cl)n1 ?
Ans: active

Q: For Cc1cc(O)c(C(C)(C)C)cc1C(C)(C)C , what call appears in the results of this test?
Ans: active

Q: What did this assay record as the result for CCN1/C(=C/C=C/c2sc3ccccc3[n+]2CC)Sc2ccccc21 ?
Ans: active

Q: Would you mind telling me which call this test gave CCCCCOC(=O)CCCC ?
Ans: inactive

Q: How was NNC(=O)c1cccc(C(=O)NN)c1 classified in this test?
Ans: inactive

Q: What did this assay record as the result for O=C(Nc1cccc(C(F)(F)F)c1)c1cc(Br)cc(Br)c1O ?
Ans: active

Q: Short answer needed: outcome of this test for CCOc1nc2cccc(C(=O)OC(C)OC(=O)OC3CCCCC3)c2n1Cc1ccc(-c2ccccc2-c2nn[nH]n2)cc1 (stereo unspecified) ?
Ans: active

Q: Which outcome was entered for the compound CCCCN(CCCC)C(=O)N(CCCC)CCCC in this test?
Ans: inactive

Q: Each compound tested received a call. Report the one for Cc1onc(-c2ccccc2Cl)c1C(=O)N[C@@H]1C(=O)N2[C@@H]1SC(C)(C)[C@@H]2C(=O)O .
Ans: inactive

Q: Look up the recorded call for CC1(C)CCC(C)(C)c2cc(C(=O)Nc3ccc(C(=O)O)cc3)ccc21 in this test.
Ans: inactive

Q: Any idea what this test logged for [O-][n+]1ccccc1SSc1cccc[n+]1[O-] ?
Ans: active

###

- TEST PROTOCOL: qHTS assay for small molecules that induce genotoxicity in human embryonic kidney cells expressing luciferase-tagged ATAD5 (AID 651632); also: nearly all actives have a fitted effect of over 15% in size; also: potency is read from the fitted curve at half-maximal effect
- ASSAY CONDITIONS: HEK293T ATAD5-luciferase induction, 16 h; series mostly up to 83.3 µM
Records with an inconclusive call do not appear. Active and inactive are the calls of the source. The call rests on the fitted dose curve; in most records, active means well fitted activation curve with a large enough effect in the repeat runs; inconclusive means weak or mixed curves; inactive means no such curve, though single readings can be large or run the other way.
METRIC: Potency

Study these solved cases before continuing.
CCN(CCC#N)c1ccc(N=Nc2c(Cl)cc([N+](=O)[O-])cc2Cl)cc1 | inactive
NC(=O)N1C(=O)C(C(=O)c2cc(Cl)cs2)c2cc(F)c(Cl)cc21 (stereo unspecified) | inactive
Cc1cccc(CN2CCN(C(c3ccccc3)c3ccc(Cl)cc3)CC2)c1 (stereo unspecified) | inactive
CCc1cc(Cc2cc(CC)cc(C(C)(C)C)c2O)c(O)c(C(C)(C)C)c1 | inactive
[O-][n+]1ccccc1SSc1cccc[n+]1[O-] | 2660 nM (active)

Q: For the compound Oc1c(Cl)cc(Cl)c2cccnc12 , what Potency is on record?
Ans: 13300 nM (active)

Q: Record request: Potency value, item Cc1onc(-c2ccccc2Cl)c1C(=O)N[C@@H]1C(=O)N2[C@@H]1SC(C)(C)[C@@H]2C(=O)O
Ans: inactive

Q: Which Potency value is on record for Cn1cc(C(=O)[C@@H]2CCc3nc[nH]c3C2)c2ccccc21 ?
Ans: inactive

Q: # lookup: Potency of CO[Si](CCCNc1ccccc1)(OC)OC
Ans: inactive
